- test target: furin, P09958;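 further: purified furin at 1:10 enzyme:substrate in 50 mM HEPES pH 7.5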
- Sequence (P09958 whole entry): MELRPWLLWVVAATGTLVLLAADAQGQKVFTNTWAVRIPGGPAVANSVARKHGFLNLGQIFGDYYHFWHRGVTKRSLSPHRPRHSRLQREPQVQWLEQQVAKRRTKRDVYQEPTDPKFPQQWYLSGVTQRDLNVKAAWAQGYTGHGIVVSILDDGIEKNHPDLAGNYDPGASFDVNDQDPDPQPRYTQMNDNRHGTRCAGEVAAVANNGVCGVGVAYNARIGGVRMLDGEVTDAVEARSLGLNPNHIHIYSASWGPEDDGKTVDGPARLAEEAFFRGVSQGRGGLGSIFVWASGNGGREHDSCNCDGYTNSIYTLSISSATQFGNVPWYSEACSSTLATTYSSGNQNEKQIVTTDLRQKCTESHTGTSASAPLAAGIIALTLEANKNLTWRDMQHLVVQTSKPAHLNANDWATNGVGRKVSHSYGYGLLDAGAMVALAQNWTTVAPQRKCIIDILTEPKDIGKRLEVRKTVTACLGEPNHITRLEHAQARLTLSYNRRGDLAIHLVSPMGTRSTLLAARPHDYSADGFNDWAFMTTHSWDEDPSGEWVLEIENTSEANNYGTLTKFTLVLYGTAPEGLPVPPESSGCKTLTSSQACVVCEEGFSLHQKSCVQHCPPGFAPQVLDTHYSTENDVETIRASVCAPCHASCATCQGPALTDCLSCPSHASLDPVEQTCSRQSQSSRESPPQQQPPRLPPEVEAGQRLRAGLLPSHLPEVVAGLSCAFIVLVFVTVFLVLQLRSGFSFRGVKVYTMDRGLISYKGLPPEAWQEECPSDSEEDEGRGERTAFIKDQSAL
- assay remarks: furin cleavage Z-score vs untreated control; higher = more cleavage, active = 3.5 or more, inactive = 1 or less, 8 variable residues between constant flanks
- test conditions: 7.5 min
The list shows a part of the results. The hit rate among all sequences tested is not known here.
Answer each item with its documented furin cleavage Z-score.
Please give the numeric answer without any surrounding text.

*Q* Find the recorded furin cleavage Z-score belonging to CAASGVLTTSAGNASASA [HC1511] and report it.
*A* -1.03

*Q* Find the recorded furin cleavage Z-score belonging to CAIGSVGLGKAGNASASA [HC1080] and report it.
*A* 1.13

*Q* Find the recorded furin cleavage Z-score belonging to CAREKKDVPLAGNASASA [FS-3187] and report it.
*A* 0.508

*Q* Find the recorded furin cleavage Z-score belonging to CATEEAIYQCAGNASASA [HC1488] and report it.
*A* 0.306

*Q* Find the recorded furin cleavage Z-score belonging to CARFVRDACAAGNASASA [FS-2928] and report it.
*A* 0.546

*Q* Find the recorded furin cleavage Z-score belonging to CAEVPCHRPMAGNASASA [HC2406] and report it.
*A* -0.721

*Q* Find the recorded furin cleavage Z-score belonging to CAEVVTHTWVAGNASASA [HC149] and report it.
*A* -0.408
